Value source: the supplement of paper PMC7125110

B1: glmS ribozyme (parent)
chain: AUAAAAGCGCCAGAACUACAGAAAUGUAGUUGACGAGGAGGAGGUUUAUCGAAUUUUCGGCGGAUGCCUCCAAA

Variants of: B1
Experiment: KM; higher = weaker cofactor use; RNA array
Conditions: with glucosamine-6-phosphate
endpoint-name: KM (µM)
Give the quantity in µM, number only.

Guide cases for KM, answers given:
G37A U69C
1170
G66C C71G
108
A48C C67A
1800
C16G C71U
956

Input line: Indicate the recorded KM value for this variant: G32C U47G
Output line: 403

Input line: Indicate the recorded KM value for this variant: U31C U65A
Output line: 2000

Input line: Indicate the recorded KM value for this variant: A33U U69C
Output line: 1080
